System: NCI-H358
ASSAY OVERVIEW: relative viability (nuclei count vs DMSO), 5 days (fraction); higher = more cells survive
COND: first compound 0.01581 µM
Just a reminder that ties go to no (0): only relative viability strictly below 0.2 counts as yes (1).

Previously resolved entries follow.
CC1(C)CCC(c2ccc(Cl)cc2)=C(CN2CCN(c3ccc(C(=O)NS(=O)(=O)c4ccc(N[C@H](CCN5CCOCC5)CSc5ccccc5)c(S(=O)(=O)C(F)(F)F)c4)cc3)CC2)C1 [Navitoclax] + NC(=O)Nc1cc(-c2cccc(F)c2)sc1C(=O)N[C@H]1CCCNC1 [AZD7762] (partner 0.2 µM)
no (0)
CC1(C)CCC(c2ccc(Cl)cc2)=C(CN2CCN(c3ccc(C(=O)NS(=O)(=O)c4ccc(N[C@H](CCN5CCOCC5)CSc5ccccc5)c(S(=O)(=O)C(F)(F)F)c4)cc3)CC2)C1 [Navitoclax] + Nc1ncn([C@H]2C[C@H](O)[C@@H](CO)O2)c(=O)n1 [Decitabine] (partner 2 µM)
no (0)
CC1(C)CCC(c2ccc(Cl)cc2)=C(CN2CCN(c3ccc(C(=O)NS(=O)(=O)c4ccc(N[C@H](CCN5CCOCC5)CSc5ccccc5)c(S(=O)(=O)C(F)(F)F)c4)cc3)CC2)C1 [Navitoclax] + CS(=O)(=O)CCNCc1ccc(-c2ccc3ncnc(Nc4ccc(OCc5cccc(F)c5)c(Cl)c4)c3c2)o1 [Lapatinib] (partner 2 µM)
no (0)

[in] Please check: relative viability for CC1(C)CCC(c2ccc(Cl)cc2)=C(CN2CCN(c3ccc(C(=O)NS(=O)(=O)c4ccc(N[C@H](CCN5CCOCC5)CSc5ccccc5)c(S(=O)(=O)C(F)(F)F)c4)cc3)CC2)C1 [Navitoclax] + Cc1nc(Nc2ncc(C(=O)Nc3c(C)cccc3Cl)s2)cc(N2CCN(CCO)CC2)n1 [Dasatinib] (partner 0.075 µM) , strictly under 0.2 or not?
[out] no (0)

[in] Please check: relative viability for CC1(C)CCC(c2ccc(Cl)cc2)=C(CN2CCN(c3ccc(C(=O)NS(=O)(=O)c4ccc(N[C@H](CCN5CCOCC5)CSc5ccccc5)c(S(=O)(=O)C(F)(F)F)c4)cc3)CC2)C1 [Navitoclax] + COc1cc2c(Oc3ccc(NC(=O)C4(C(=O)Nc5ccc(F)cc5)CC4)cc3F)ccnc2cc1OCCCN1CCOCC1 [Foretinib] (partner 0.25 µM) , strictly under 0.2 or not?
[out] no (0)

[in] Please check: relative viability for CC1(C)CCC(c2ccc(Cl)cc2)=C(CN2CCN(c3ccc(C(=O)NS(=O)(=O)c4ccc(N[C@H](CCN5CCOCC5)CSc5ccccc5)c(S(=O)(=O)C(F)(F)F)c4)cc3)CC2)C1 [Navitoclax] + Cc1cc(Nc2cc(N3CCN(C)CC3)nc(Sc3ccc(NC(=O)C4CC4)cc3)n2)n[nH]1 [Tozasertib] (partner 0.1 µM) , strictly under 0.2 or not?
[out] yes (1)

[in] Please check: relative viability for CC1(C)CCC(c2ccc(Cl)cc2)=C(CN2CCN(c3ccc(C(=O)NS(=O)(=O)c4ccc(N[C@H](CCN5CCOCC5)CSc5ccccc5)c(S(=O)(=O)C(F)(F)F)c4)cc3)CC2)C1 [Navitoclax] + CC(=O)c1c(C)c2cnc(Nc3ccc(N4CCNCC4)cn3)nc2n(C2CCCC2)c1=O [Palbociclib] (partner 0.5 µM) , strictly under 0.2 or not?
[out] yes (1)

* * *

System: LC-2-ad
ASSAY OVERVIEW: relative viability (nuclei count vs DMSO), 5 days (fraction); higher = more cells survive
COND: first compound 0.1 µM
ENDPOINT NAME: relative viability
API note: the answer field is a bare number with no unit suffix.

Some molecules with known relative viability results, for comparison:
NC(=O)Nc1cc(-c2cccc(F)c2)sc1C(=O)N[C@H]1CCCNC1 [AZD7762] + Cc1nc(NC(=O)N2CCC[C@H]2C(N)=O)sc1-c1ccnc(C(C)(C)C(F)(F)F)c1 [Alpelisib] (partner 2 µM)
0.795
NC(=O)Nc1cc(-c2cccc(F)c2)sc1C(=O)N[C@H]1CCCNC1 [AZD7762] + CC(C)C[C@H](NC(=O)[C@H](Cc1ccccc1)NC(=O)c1cnccn1)B(O)O [Bortezomib] (partner 0.002 µM)
0.975
NC(=O)Nc1cc(-c2cccc(F)c2)sc1C(=O)N[C@H]1CCCNC1 [AZD7762] + Cc1cc(Nc2cc(N3CCN(C)CC3)nc(Sc3ccc(NC(=O)C4CC4)cc3)n2)n[nH]1 [Tozasertib] (partner 0.1 µM)
0.449

[in] Which relative viability is reported for this molecule? NC(=O)Nc1cc(-c2cccc(F)c2)sc1C(=O)N[C@H]1CCCNC1 [AZD7762] + C[C@@H](Oc1cc(-c2cnn(C3CCNCC3)c2)cnc1N)c1c(Cl)ccc(F)c1Cl [Crizotinib] (partner 1 µM)
[out] 0.52

[in] Which relative viability is reported for this molecule? NC(=O)Nc1cc(-c2cccc(F)c2)sc1C(=O)N[C@H]1CCCNC1 [AZD7762] + CC(=O)Nc1cccc(-n2c(=O)n(C3CC3)c(=O)c3c(Nc4ccc(I)cc4F)n(C)c(=O)c(C)c32)c1 [Trametinib] (partner 0.02 µM)
[out] 0.906

* * *

Tested on: NCI-H838
ASSAY OVERVIEW: relative viability (nuclei count vs DMSO), 5 days (fraction); higher = more cells survive
COND: first compound 0.1581 µM
ENDPOINT NAME: relative viability

CC1(C)CCC(c2ccc(Cl)cc2)=C(CN2CCN(c3ccc(C(=O)NS(=O)(=O)c4ccc(N[C@H](CCN5CCOCC5)CSc5ccccc5)c(S(=O)(=O)C(F)(F)F)c4)cc3)CC2)C1 [Navitoclax] + CC(C)C[C@H](NC(=O)[C@H](Cc1ccccc1)NC(=O)c1cnccn1)B(O)O [Bortezomib] (partner 0.002 µM)
0.75

[in] Which relative viability is reported for this compound? CC1(C)CCC(c2ccc(Cl)cc2)=C(CN2CCN(c3ccc(C(=O)NS(=O)(=O)c4ccc(N[C@H](CCN5CCOCC5)CSc5ccccc5)c(S(=O)(=O)C(F)(F)F)c4)cc3)CC2)C1 [Navitoclax] + CC(=O)c1c(C)c2cnc(Nc3ccc(N4CCNCC4)cn3)nc2n(C2CCCC2)c1=O [Palbociclib] (partner 0.5 µM)
[out] 0.209

* * *

System: H3255
ASSAY OVERVIEW: relative viability (nuclei count vs DMSO), 5 days (fraction); higher = more cells survive
COND: first compound 0.4 µM
ENDPOINT NAME: relative viability

O=C(O)c1ccc(-c2c[nH]c3ncc(-c4ccccc4)cc23)cc1C1CCCC1 + CC(=O)Nc1cccc(-n2c(=O)n(C3CC3)c(=O)c3c(Nc4ccc(I)cc4F)n(C)c(=O)c(C)c32)c1 [Trametinib] (partner 0.02 µM)
0.584

[in] Which relative viability is reported for this compound? O=C(O)c1ccc(-c2c[nH]c3ncc(-c4ccccc4)cc23)cc1C1CCCC1 + COc1cc2c(Oc3ccc(NC(=O)C4(C(=O)Nc5ccc(F)cc5)CC4)cc3F)ccnc2cc1OCCCN1CCOCC1 [Foretinib] (partner 0.25 µM)
[out] 0.888

[in] Which relative viability is reported for this compound? O=C(O)c1ccc(-c2c[nH]c3ncc(-c4ccccc4)cc23)cc1C1CCCC1 + CC1(C)CCC(c2ccc(Cl)cc2)=C(CN2CCN(c3ccc(C(=O)NS(=O)(=O)c4ccc(N[C@H](CCN5CCOCC5)CSc5ccccc5)c(S(=O)(=O)C(F)(F)F)c4)cc3)CC2)C1 [Navitoclax] (partner 0.5 µM)
[out] 0.684

[in] Which relative viability is reported for this compound? O=C(O)c1ccc(-c2c[nH]c3ncc(-c4ccccc4)cc23)cc1C1CCCC1 + CS(=O)(=O)N1CCN(Cc2cc3nc(-c4cccc5[nH]ncc45)nc(N4CCOCC4)c3s2)CC1 [Pictilisib] (partner 1 µM)
[out] 0.441

* * *

Tested on: NCI-H1355
ASSAY OVERVIEW: relative viability (nuclei count vs DMSO), 5 days (fraction); higher = more cells survive
COND: first compound 1 µM
ENDPOINT NAME: relative viability
API note: the answer field is a bare number with no unit suffix.

Some compounds with known relative viability results, for comparison:
NC(=O)Nc1cc(-c2cccc(F)c2)sc1C(=O)N[C@H]1CCCNC1 [AZD7762] + CC1(C)CCC(c2ccc(Cl)cc2)=C(CN2CCN(c3ccc(C(=O)NS(=O)(=O)c4ccc(N[C@H](CCN5CCOCC5)CSc5ccccc5)c(S(=O)(=O)C(F)(F)F)c4)cc3)CC2)C1 [Navitoclax] (partner 0.5 µM)
0.914
NC(=O)Nc1cc(-c2cccc(F)c2)sc1C(=O)N[C@H]1CCCNC1 [AZD7762] + Cc1nc(NC(=O)N2CCC[C@H]2C(N)=O)sc1-c1ccnc(C(C)(C)C(F)(F)F)c1 [Alpelisib] (partner 2 µM)
0.852
NC(=O)Nc1cc(-c2cccc(F)c2)sc1C(=O)N[C@H]1CCCNC1 [AZD7762] + CC(=O)c1c(C)c2cnc(Nc3ccc(N4CCNCC4)cn3)nc2n(C2CCCC2)c1=O [Palbociclib] (partner 0.5 µM)
0.39

Now for another entry.
[in] Which relative viability is reported for this compound? NC(=O)Nc1cc(-c2cccc(F)c2)sc1C(=O)N[C@H]1CCCNC1 [AZD7762] + COc1cc2c(Oc3ccc(NC(=O)C4(C(=O)Nc5ccc(F)cc5)CC4)cc3F)ccnc2cc1OCCCN1CCOCC1 [Foretinib] (partner 0.25 µM)
[out] 0.995

Source: the supplement of paper PMC10307832
